// data source = ChEMBL document CHEMBL1122831

# System: Streptococcus pyogenes
# Test: Minimum inhibition concentration in vitro determined against Streptococcus pyogenes 930
# Assay type: functional
Property: MIC (µg/mL)

1: O=C(O)c1cn(-c2ccc(F)cc2)c2cc(N3CCOCC3)c(F)cc2c1=O
2: CN1CCN(c2cc3c(cc2F)c(=O)c(C(=O)O)cn3-c2ccccc2F)CC1
3: CC(=O)NC1CCN(c2cc3c(cc2F)c(=O)c(C(=O)O)cn3-c2ccc(F)cc2)C1 (centres undefined)
4: CN1CCN(c2cc3c(cc2F)c(=O)c(C(=O)O)cn3-c2ccc(F)cc2)CC1=O
query: rank_up(items): orders items by reported MIC in ascending numerical order. API: response body holds the labels in the requested order.
result: 4, 3, 1, 2
(4: 0.39 µg/mL, 3: 0.78 µg/mL, 1: 1.56 µg/mL, 2: 12.5 µg/mL)

1: CN1CCN(c2cc3c(cc2F)c(=O)c(C(=O)O)cn3-c2ccc(F)cc2)CC1
2: Cc1ccccc1-n1cc(C(=O)O)c(=O)c2cc(F)c(N3CCN(C)CC3)cc21
query: Name the one with the greater MIC value, either 1 or 2 as given. # answer = label of selected item
result: 2

====

# Test system: Streptococcus pyogenes
# Test: Minimum inhibition concentration in vitro determined against Streptococcus pyogenes 930
# Format: functional
Property: MIC (µg/mL)

O=C1CN(c2cc3c(cc2F)c(=O)c(C(=O)O)cn3-c2ccc(F)cc2)CCN1: 0.78
O=C(O)c1cn(-c2ccc(F)cc2)c2cc(N3CCCC3)c(F)cc2c1=O: 0.78
CN1CCN(c2cc3c(cc2F)c(=O)c(C(=O)O)cn3-c2ccc(F)cc2F)CC1: 0.78
O=C(O)c1cn(-c2ccc(F)cc2)c2cc(N3CCNCC3)c(F)cc2c1=O [SARAFLOXACIN]: 0.78

====

# Tested on: Pseudomonas aeruginosa
# Test: Minimum inhibition concentration in vitro determined against Pseudomona aeruginosa 5007
# Assay type: functional
Property: MIC (µg/mL)

# annotated cases, reported MIC shown
CN1CCN(c2cc3c(cc2F)c(=O)c(C(=O)O)cn3-c2ccc(F)cc2)CC1=O: 1.56
CCn1cc(C(=O)O)c(=O)c2cc(F)c(N3CCNCC3)cc21: 0.39
O=C(O)c1cn(-c2ccc(F)cc2)c2cc(N3CCC(O)CC3)c(F)cc2c1=O: 6.2

I: CCC(=O)N1CCN(c2cc3c(cc2F)c(=O)c(C(=O)O)cn3-c2ccc(F)cc2)CC1
II: O=C(O)c1cn(-c2ccc(F)cc2)c2cc(N3CCOCC3)c(F)cc2c1=O
query: Name the one with the greater MIC value, either I or II as given. # answer = label of selected item
result: I

I: Cc1ccc(-n2cc(C(=O)O)c(=O)c3cc(F)c(N4CCN(C)CC4)cc32)cc1
II: CNC1CCN(c2cc3c(cc2F)c(=O)c(C(=O)O)cn3-c2ccc(F)cc2)C1 (stereo not drawn)
query: Input pair: I , II . Output: entry with lower MIC. # answer = label of selected item
result: I
(I: 12.5 µg/mL, II: 50 µg/mL)

====

# Tested on: Streptococcus pyogenes
# Test: Minimum inhibition concentration in vitro determined against Streptococcus pyogenes 930
# Type: functional
Property: MIC (µg/mL)
Number in µg/mL, nothing else.

O=C(O)c1cn(-c2ccc(F)cc2)c2cc(N3CCC(O)C3)c(F)cc2c1=O (stereo not drawn): 1.56

query: Quick check: MIC of O=C(O)c1cn(-c2ccccc2)c2cc(N3CCNCC3)c(F)cc2c1=O ?
result: 1.56

====

# System: Pseudomonas aeruginosa
# Test: Minimum inhibition concentration in vitro determined against Pseudomona aeruginosa 5007
# Assay type: functional
Property: MIC (µg/mL)

# annotated cases, reported MIC shown
O=C(O)c1cn(-c2ccc(F)cc2)c2cc(N3CCCNCC3)c(F)cc2c1=O: 1.56
COc1ccc(-n2cc(C(=O)O)c(=O)c3cc(F)c(N4CCN(C)CC4)cc32)cc1: 200

P: O=C(O)c1cn(-c2ccc(F)cc2)c2cc(N3CCC(O)C3)c(F)cc2c1=O (stereo unspecified)
Q: CC(=O)N1CCN(c2cc3c(cc2F)c(=O)c(C(=O)O)cn3-c2ccc(F)cc2)CC1
query: Name the one with the greater MIC value, either P or Q as given. # answer = label of selected item
result: Q
